system: Malme-3M; assay: NCI tumour cell line growth inhibition, 48 h
Activity calls are given as the source filed them. No stated cut-off is given here; in the data, active = GI50 up to about 1.1 µM and inactive = higher.
readoutName: GI50

>>> recordedmeasurement("Oc1cccc(-c2ccc3c4c2O[C@H]2c5[nH]c6ccccc6c5C[C@@]5(O)[C@@H](C3)N(CC3CC3)CC[C@]425)c1")
"1.86 µM (inactive)"
>>> recordedmeasurement("O=CC1CCCc2ccccc21 (stereo not given)")
"> 100 µM (inactive)"
>>> recordedmeasurement("COc1cc(C2C3=C(CCC3=O)Oc3cc4c(cc32)OCO4)cc(OC)c1OC (stereo not given)")
"1.44 µM (inactive)"
>>> recordedmeasurement("CCOC(=O)/C=C(\\C(=O)OCC)n1ccc(=O)n(Cc2cn(CCCCOC(C)=O)nn2)c1=O")
"2.18 µM (inactive)"
>>> recordedmeasurement("Clc1cc(Br)c2c3c(c(Br)cc(Cl)c13)C(Br)=C2Br")
"27.6 µM (inactive)"
>>> recordedmeasurement("CC(C)(C)c1ccc2c(c1)S(=O)(=O)Nc1cccc(c1)NS(=O)(=O)c1cc(C(C)(C)C)ccc1OCCOCCO2")
"> 100 µM (inactive)"
>>> recordedmeasurement("Cc1cn(C2CC(O)C(COC(=O)c3ccccc3)O2)c(=O)[nH]c1=O (stereo not given)")
"> 100 µM (inactive)"
>>> recordedmeasurement("Clc1cc(-c2ccccc2)nc(Nc2nc3ccccc3[nH]2)n1")
"28.2 µM (inactive)"
>>> recordedmeasurement("COC1=CC2(C=CC1=O)CCNC1=C2C(=O)c2nc[nH]c2C1=O (stereo not given)")
"> 100 µM (inactive)"
>>> recordedmeasurement("CC(C)(CC1(C)NC(=O)NC1=O)OCc1ccccc1 (stereo not given)")
"> 100 µM (inactive)"
